- Tested on: SW-620
- assayExplanation: NCI tumour cell line growth inhibition, 48 h
Active and inactive are the calls of the source. No stated cut-off is given here; in the data, active = GI50 up to about 1.1 µM and inactive = higher.
# reported GI50; entries follow
readoutName: GI50

compound: NC(=O)c1cc2ccccc2o/c1=N/O
result: > 100 µM (inactive)

compound: c1ccc2c(c1)N=C(c1cccc3ccccc13)CC(c1cccc3ccccc13)S2 (stereo not given)
result: 2.56 µM (inactive)

compound: C1=C[C@]2(CCC13OCCO3)COc1ccccc12
result: 54.8 µM (inactive)

compound: C[N+](C)(C)CCCCCc1c2nc(c(CCCCC[N+](C)(C)C)c3ccc([nH]3)c(CCCCC[N+](C)(C)C)c3nc(c(CCCCC[N+](C)(C)C)c4ccc1[nH]4)C=C3)C=C2
result: > 100 µM (inactive)

compound: CCOC(=O)c1[nH]c2nc(SC)nc(NC)c2c1N
result: > 100 µM (inactive)

====

# reported GI50; entries follow
- System: MDA-MB-231
- assayExplanation: NCI tumour cell line growth inhibition, 48 h
The source made the active and inactive calls. Cut-off read from the data, not from the text of the source: active = GI50 up to about 1.1 µM and inactive = higher. Non-standard residues stand in square brackets, D forms with d. Residues, ends and D or L forms follow the SMILES beside them. ξ: configuration not given here. ξLac(3-iPr) = CC(C)CC(O)C(=O)O; NMeV = CN[CH](C(=O)O)C(C)C; NMeA = CN[CH](C)C(=O)O; βAla = NCCC(=O)O

compound: O=c1oc2nc(-c3ccccc3)cc(C(F)(F)F)c2n1Cc1ccccc1
GI50: > 24.4 µM (inactive)
--
compound: OCC(O)C1OC2CC1Nc1ccccc1N2 (stereo not given)
GI50: > 100 µM (inactive)
--
compound: CC1=NN(C(=O)CC(=O)Nc2ccccc2)C(=O)C1/N=N/c1ccc(C(=O)O)cc1 (stereo not given)
GI50: > 100 µM (inactive)
--
compound: Cc1ccc2nc(Cl)c(/C=N/N3C(=O)/C(=C/Cc4ccco4)N=C3c3ccccc3)cc2c1
GI50: 67.8 µM (inactive)
--
compound: N=C(N)NNC(=O)C(=O)O
GI50: > 100 µM (inactive)
--
compound: COc1ccc(COCCOCc2nc(C#N)c(N)o2)cc1
GI50: > 100 µM (inactive)
--
compound: Nc1csc(-c2scc3c2OCCO3)c1N
GI50: 20.6 µM (inactive)
--
compound: COc1c(-c2ccc(O)c(O)c2)oc2c(O)c(O)cc(O)c2c1=O
GI50: > 100 µM (inactive)
--
compound: Cc1ccc(N2CCN(CCC(=O)O)CC2)cc1
GI50: > 100 µM (inactive)
--
compound: c1ccc([P+](CCSCCSCC[P+](c2ccccc2)(c2ccccc2)c2ccccc2)(c2ccccc2)c2ccccc2)cc1
GI50: > 100 µM (inactive)
--
compound: NC(=O)c1csc(-c2ccc(CO)o2)n1
GI50: > 100 µM (inactive)
--
compound: COc1cc(/C=C/C2=NN(c3cccc(S(=O)(=O)O)c3)C3(C2)SCC(=O)N3c2nc3ccccc3s2)cc(OC)c1OC (stereo not given)
GI50: 43.3 µM (inactive)
--
compound: O=C1c2cccc3cc([N+](=O)[O-])cc(c23)C(=O)N1c1ccc(OCCN2CCCC2)cc1
GI50: 43.2 µM (inactive)
--
compound: O=C1Cc2c([nH]c3ccccc23)C2(CC3CCCCN13)OCCO2 (stereo not given)
GI50: 84.5 µM (inactive)
--
compound: C=C1CN2CC(=C)CN(C1)CS(=O)(=O)N1CC(=C)CN(CC(=C)C1)S(=O)(=O)N1CC(=C)CN(CC(=C)C1)S(=O)(=O)C2
GI50: 24.2 µM (inactive)
--
compound: Cc1ccc2nc(-c3ccc(NC(=O)c4ccc(N)cc4)c(S(=O)(=O)O)c3)sc2c1
GI50: > 100 µM (inactive)
--
compound: Cc1cccc2c(=O)c3cccc(CC(=O)O)c3oc12
GI50: > 100 µM (inactive)
--
compound: Nc1ccccc1.O=C(O)C(C(F)(F)F)C(F)(F)F
GI50: > 100 µM (inactive)
--
compound: CCC(C)C1NC(=O)C2CCCN2C(=O)C(CC(C)C)OC(=O)CCNC(=O)C(C)N(C)C(=O)C(C(C)C)N(C)C1=O (stereo not given) (cyclo([ξLac(3-iPr)]PI[NMeV][NMeA][βAla]); configuration not given here)
GI50: 6.24 µM (inactive)
--
compound: CCOC(=O)c1[nH]c2nc(SC)nc(NC)c2c1N
GI50: > 100 µM (inactive)

====

- Test system: SNB-75
- assayExplanation: NCI tumour cell line growth inhibition, 48 h
The source made the active and inactive calls. Rule as the data show it: active = GI50 up to about 1.1 µM and inactive = higher.
# reported GI50; entries follow
readoutName: GI50

molecule: Nc1n/c(=N\c2ccccc2)ss1
readoutName: GI50
result: > 100 µM (inactive)
//
molecule: CN(C)c1ccc(/C=c2/c3ccccc3n3c2cc(/C=C/c2ccccc2)[n+]3C)cc1
readoutName: GI50
result: 0.033 µM (active)
//
molecule: Cn1nc2ccc3nccc(N4CCN(CCO)CC4)c3c2n1
readoutName: GI50
result: > 100 µM (inactive)
//
molecule: c1cc2c(c(-c3c4ccccc4nc4ccccc34)c1)CC1(CC2)OCCO1
readoutName: GI50
result: > 100 µM (inactive)
//
molecule: N=C(N)NNC(=O)C(=O)O
readoutName: GI50
result: > 100 µM (inactive)
//
molecule: N#CC1=C2Sc3ccccc3N2[C@H](c2ccccc2)[C@H]2COC(=O)[C@@H]12
readoutName: GI50
result: 21.6 µM (inactive)
//
molecule: COC(=O)C1=C(C)C=C(N2CCOCC2)C(C(=O)OC)C1c1ccccc1 (stereo not drawn)
readoutName: GI50
result: > 10 µM (inactive)
//
molecule: CC(C)NC(=O)OCc1c(CO)c2c(n1C)-c1ccccc1CC2
readoutName: GI50
result: 33 µM (inactive)
//
molecule: CCOC(=O)C(C(CC(=O)OC)NC(=O)OCc1ccccc1)C1(C)OCCO1 (stereo not drawn)
readoutName: GI50
result: 41.1 µM (inactive)
//
molecule: CSc1ccccc1P(CCP(c1ccccc1SC)c1ccccc1SC)c1ccccc1SC
readoutName: GI50
result: 13 µM (inactive)
//
molecule: COC1O[C@@H]2COC(C)(C)O[C@@H]2C(=O)N1Nc1ccc([N+](=O)[O-])cc1 (stereo partly drawn)
readoutName: GI50
result: > 100 µM (inactive)
//
molecule: CC(=O)OCC1OC(n2c3c(cc(C#N)c2=O)CCCCCC3)C(OC(C)=O)C(OC(C)=O)C1OC(C)=O (stereo not drawn)
readoutName: GI50
result: 18.4 µM (inactive)
//
molecule: CCOP(=O)(OCC)/C(=C\n1c(=S)[nH]c2cc(C)ccc21)C(=O)OC
readoutName: GI50
result: > 100 µM (inactive)
//
molecule: CCOP(=O)(OCC)/C(C#N)=C/c1cccn1C(C)C
readoutName: GI50
result: > 100 µM (inactive)
//
molecule: CC(=O)Oc1ccc2cc(Oc3ccccc3)c(=O)oc2c1
readoutName: GI50
result: 90.6 µM (inactive)
//
molecule: Clc1ccc(SCCCCCCCCCCSc2ccc(Cl)cc2)cc1
readoutName: GI50
result: > 100 µM (inactive)
//
molecule: O=C1C=CC(=O)c2c1ccc1c3ccccc3n(Cc3ccc([N+](=O)[O-])cc3)c21
readoutName: GI50
result: > 100 µM (inactive)
//
molecule: CN(C)CCCN1CCc2c([nH]c3ccccc23)C1c1cccnc1 (stereo not drawn)
readoutName: GI50
result: > 100 µM (inactive)
//
molecule: C[n+]1c2ccccc2c(NC(CS)C(=O)O)c2ccccc21 (stereo not drawn)
readoutName: GI50
result: 24.2 µM (inactive)
//
molecule: Cc1ccc(S(=O)(=O)NC(=N)N(C)N=O)cc1
readoutName: GI50
result: 38.2 µM (inactive)
//
molecule: O=C(CC1(O)C(=O)Nc2ccccc21)c1ccncc1 (stereo not drawn)
readoutName: GI50
result: > 100 µM (inactive)
//
molecule: CC(C(O)Cc1ccccc1)N(C)/N=N/c1ccc([N+](=O)[O-])cc1 (stereo not drawn)
readoutName: GI50
result: 23.1 µM (inactive)
//
molecule: CC(C)OCN/C(N)=N\C#N
readoutName: GI50
result: > 100 µM (inactive)

====

- Tested on: NCI/ADR-RES
- assayExplanation: NCI tumour cell line growth inhibition, 48 h
Calls of active or inactive are those of the source. No stated cut-off is given here; in the data, active = GI50 up to about 1.1 µM and inactive = higher.
Outcomes: 1 for active, 0 for inactive

compound: O=C(C=P(c1ccccc1)(c1ccccc1)c1ccccc1)c1ccccc1-c1ccccc1C(=O)C=P(c1ccccc1)(c1ccccc1)c1ccccc1
label: 1
//
compound: Nc1ncc2ncn(C3CCC(CO)O3)c2n1 (centres undefined)
label: 0
//
compound: C[C@]12CC[C@@H]3c4ccc(O)cc4CC[C@H]3[C@@H]1CC[C@@H]2OC(=O)CCC1CCCC1 [ESTRADIOL CYPIONATE]
label: 0
//
compound: COc1cc(OC)c(/C=N\Nc2nc3ccccc3c(=O)n2-c2ccccc2)c(OC)c1
label: 0

Reference for the values: ChEMBL document CHEMBL1201862
